Values were extracted from ChEMBL document CHEMBL1159156.

recorded_metric: pKi
Give only the number. pKi is defined as minus log10 of concentration in molar units.

**Query** Identify the measured pKi of C[N+]1(C)C2CCC1CC1(C2)OC(=O)C(c2ccccc2)(c2ccccc2)O1 (stereo in doubt; 4b) for Muscarinic acetylcholine receptor M1 (Rattus norvegicus).
**Result** 9.10

**Query** Identify the measured pKi of C[N+]1(C)CCC2(CC1)OC(=O)C(c1ccccc1)(c1ccccc1)O2 for Muscarinic acetylcholine receptor M1 (Rattus norvegicus).
**Result** 8.30

**Query** Identify the measured pKi of C[N+]1(C)C2CCC1CC1(C2)OC(=O)C(c2ccccc2)(c2ccccc2)O1 (stereo in doubt; 4a) for Muscarinic acetylcholine receptor M1 (Rattus norvegicus).
**Result** 9.40

**Query** Identify the measured pKi of C[N+]1(C)CCC(OC(=O)C(c2ccccc2)c2ccccc2)CC1 [4-DAMP] for Muscarinic acetylcholine receptor M1 (Rattus norvegicus).
**Result** 9.23

----------
Provide the recorded pKi for the entries that follow.
Give only the number. pKi is defined as minus log10 of concentration in molar units.

**Query** Identify the measured pKi of C[N+]1(C)C2CCC1CC1(C2)OC(=O)C(c2ccccc2)(c2ccccc2)O1 (stereo in doubt; 4a) for Muscarinic acetylcholine receptor M3 (Rattus norvegicus).
**Result** 7.98

**Query** Identify the measured pKi of C[N+]1(C)C2CCC1CC1(C2)OC(=O)C(c2ccccc2)(c2ccccc2)O1 (stereo in doubt; 4b) for Muscarinic acetylcholine receptor M3 (Rattus norvegicus).
**Result** 7.30

**Query** Identify the measured pKi of C[N+]1(C)CCC2(CC1)OC(=O)C(c1ccccc1)(c1ccccc1)O2 for Muscarinic acetylcholine receptor M3 (Rattus norvegicus).
**Result** 8.53

----------
# study_target: Muscarinic acetylcholine receptor M4 (Homo sapiens, UniProt P08173)
# Sequence (P08173 whole entry): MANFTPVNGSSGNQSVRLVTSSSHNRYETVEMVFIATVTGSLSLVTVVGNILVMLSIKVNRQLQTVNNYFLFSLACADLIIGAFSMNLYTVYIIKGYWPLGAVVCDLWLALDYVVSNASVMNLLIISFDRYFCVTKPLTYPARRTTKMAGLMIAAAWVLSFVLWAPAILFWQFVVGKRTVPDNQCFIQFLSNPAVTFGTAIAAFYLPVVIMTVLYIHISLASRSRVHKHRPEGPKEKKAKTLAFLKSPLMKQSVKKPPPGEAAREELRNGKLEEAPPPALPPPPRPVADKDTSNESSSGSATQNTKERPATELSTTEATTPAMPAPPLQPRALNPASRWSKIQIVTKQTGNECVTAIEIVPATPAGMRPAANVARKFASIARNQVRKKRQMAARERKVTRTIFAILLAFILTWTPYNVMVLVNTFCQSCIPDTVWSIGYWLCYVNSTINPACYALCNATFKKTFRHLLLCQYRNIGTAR
# test_method_notes: Compound was tested for binding affinity against Muscarinic acetylcholine receptor M4 in NG 108-15 cell homogenates
recorded_metric: pKi
Give only the number. pKi is defined as minus log10 of concentration in molar units.

**Query** Dear colleague, I am looking for the recorded pKi of the following molecule: C[N+]1(C)C2CCC1CC1(C2)OC(=O)C(c2ccccc2)(c2ccccc2)O1 (stereo in doubt; 4b)
**Result** 8.36

**Query** Dear colleague, I am looking for the recorded pKi of the following molecule: C[N+]1(C)C2CCC1CC1(C2)OC(=O)C(c2ccccc2)(c2ccccc2)O1 (stereo in doubt; 4a)
**Result** 8.33
